pIC50: −log10 of the molar value.
List of pIC50 tested on Lck (Homo sapiens).
Sequence (P06239 whole entry): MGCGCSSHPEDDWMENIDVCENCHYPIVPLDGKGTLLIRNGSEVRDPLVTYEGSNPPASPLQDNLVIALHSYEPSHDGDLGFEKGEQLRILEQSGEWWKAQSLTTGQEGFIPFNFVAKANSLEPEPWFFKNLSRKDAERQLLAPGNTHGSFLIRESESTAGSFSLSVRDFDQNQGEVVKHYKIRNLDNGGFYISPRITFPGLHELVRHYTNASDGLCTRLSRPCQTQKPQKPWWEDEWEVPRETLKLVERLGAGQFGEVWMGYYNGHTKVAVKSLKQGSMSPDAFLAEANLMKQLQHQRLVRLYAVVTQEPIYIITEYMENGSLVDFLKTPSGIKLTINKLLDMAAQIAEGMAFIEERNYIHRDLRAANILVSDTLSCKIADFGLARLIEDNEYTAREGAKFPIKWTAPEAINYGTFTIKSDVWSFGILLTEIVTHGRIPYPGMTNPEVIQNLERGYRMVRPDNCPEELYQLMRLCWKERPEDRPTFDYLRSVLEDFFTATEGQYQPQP
measureName: pIC50

>>> valuemeasured("C=CC(=O)Nc1ccc(-n2nc(-c3ccc(Cl)cc3)c3c(N)ncnc32)cc1")
"> 7.00"
>>> valuemeasured("CN(C/C=C/C(=O)N1CC[C@@H](n2nc(-c3ccc(F)cc3)c3c(N)ncnc32)C1)C1CCC1")
"6.00 to 7.00"
>>> valuemeasured("CN(C/C=C/C(=O)Nc1cccc(-n2nc(-c3ccc(Cl)cc3)c3c(N)ncnc32)c1)C1CC1")
"6.00 to 7.00"
>>> valuemeasured("COc1cc(-c2nn(-c3ccc(N(C)C(=O)/C=C/CN(C)C)cn3)c3ncnc(N)c23)ccc1C")
"6.00 to 7.00"
>>> valuemeasured("CN(C)C/C=C/C(=O)Nc1ccc(-n2nc(-c3ccc(Cl)cc3)c3c(N)ncnc32)cc1")
"> 7.00"
>>> valuemeasured("COc1cc(-c2nn([C@@H]3CCN(C(=O)/C=C/CN(C)C)C3)c3ncnc(N)c23)ccc1F")
"6.00 to 7.00"
>>> valuemeasured("COc1ccc(-c2nn([C@@H]3CCN(C(=O)/C=C/CN(C)C)C3)c3ncnc(N)c23)cc1")
"6.00 to 7.00"
>>> valuemeasured("C=CC(=O)N(C)c1cccc(-n2nc(-c3ccc(Cl)cc3)c3c(N)ncnc32)c1")
"< 6.00"

###

Here we list molecules with their recorded pIC50 when tested on Lck (Homo sapiens).
pIC50: −log10 of the molar value.
measureName: pIC50

>>> valuemeasured("COc1cc(-c2nn([C@@H]3CCN(C(=O)/C=C/CN(C)C)C3)c3ncnc(N)c23)ccc1C")
"> 7.00"
>>> valuemeasured("COCCOc1ccc(-c2nn([C@@H]3CCN(C(=O)/C=C/CN(C)C)C3)c3ncnc(N)c23)cc1")
"< 6.00"
>>> valuemeasured("COc1cc(-c2nn(-c3ccc(NC(=O)/C=C/CN(C)C)cc3)c3ncnc(N)c23)ccc1C")
"> 7.00"
>>> valuemeasured("C=CC(=O)N(C)c1ccc(-n2nc(-c3ccc(C)c(OC)c3)c3c(N)ncnc32)cc1")
"> 7.00"
>>> valuemeasured("CN(C(=O)/C=C/CN(C)C1CC1)c1cccc(-n2nc(-c3ccc(Cl)cc3)c3c(N)ncnc32)c1")
"< 6.00"
>>> valuemeasured("COc1cc(-c2nn(-c3cccc(N(C)C(=O)/C=C/CN(C)C4CCC4)c3)c3ncnc(N)c23)ccc1C")
"6.00 to 7.00"
>>> valuemeasured("Cc1ccc(-c2nn([C@@H]3CCN(C(=O)/C=C/CN(C)C)C3)c3ncnc(N)c23)cc1")
"6.00 to 7.00"

###

Form: system (RET (Homo sapiens, UniProt P07949)), quantity (IC50), values below.
measureName: IC50

>>> valuemeasured("Cc1ccc(-c2nn([C@@H]3CCN(C(=O)/C=C/CN(C)C)C3)c3ncnc(N)c23)cc1")
"100 to 1000 nM"
>>> valuemeasured("COc1ccc(-c2nn([C@@H]3CCN(C(=O)/C=C/CN(C)C)C3)c3ncnc(N)c23)cc1")
"100 to 1000 nM"
>>> valuemeasured("CN(C)C/C=C/C(=O)N1CC[C@@H](n2nc(-c3ccc(F)cc3)c3c(N)ncnc32)C1")
"> 1000 nM"
>>> valuemeasured("CN(C)C/C=C/C(=O)N1CC[C@@H](n2nc(-c3ccc(Cl)cc3)c3c(N)ncnc32)C1")
"100 to 1000 nM"
>>> valuemeasured("CN(C)C/C=C/C(=O)N1CC[C@@H](n2nc(-c3ccc(Cl)cc3F)c3c(N)ncnc32)C1")
"100 to 1000 nM"
>>> valuemeasured("COc1cc(-c2nn([C@@H]3CCN(C(=O)/C=C/CN(C)C)C3)c3ncnc(N)c23)ccc1F")
"> 1000 nM"
>>> valuemeasured("COc1cc(-c2nn([C@@H]3CCN(C(=O)/C=C/CN(C)C)C3)c3ncnc(N)c23)ccc1C")
"> 1000 nM"
>>> valuemeasured("COc1cccc(-c2nn([C@@H]3CCN(C(=O)/C=C/CN(C)C)C3)c3ncnc(N)c23)c1")
"100 to 1000 nM"

###

For RET (Homo sapiens), measured pIC50 is reported for the entries below.
pIC50: −log10 of the molar value.
measureName: pIC50

>>> valuemeasured("COCCOc1ccc(-c2nn([C@@H]3CCN(C(=O)/C=C/CN(C)C)C3)c3ncnc(N)c23)cc1 [Example 2]")
"< 6.00"
>>> valuemeasured("CN(C/C=C/C(=O)N1CC[C@@H](n2nc(-c3ccc(F)cc3)c3c(N)ncnc32)C1)C1CCC1 [Example 11]")
"< 6.00"
>>> valuemeasured("CN(C)C/C=C/C(=O)Nc1cccc(-n2nc(-c3ccc(Cl)cc3)c3c(N)ncnc32)c1 [Example 27]")
"6.00 to 7.00"
>>> valuemeasured("Cc1ccc(-c2nn([C@@H]3CCN(C(=O)/C=C/CN(C)C4CCC4)C3)c3ncnc(N)c23)cc1 [Example 12]")
"6.00 to 7.00"

###

Lab note: IC50 readings collected with BLK (Homo sapiens, UniProt P51451) for the following compounds.
Sequence (P51451 whole entry): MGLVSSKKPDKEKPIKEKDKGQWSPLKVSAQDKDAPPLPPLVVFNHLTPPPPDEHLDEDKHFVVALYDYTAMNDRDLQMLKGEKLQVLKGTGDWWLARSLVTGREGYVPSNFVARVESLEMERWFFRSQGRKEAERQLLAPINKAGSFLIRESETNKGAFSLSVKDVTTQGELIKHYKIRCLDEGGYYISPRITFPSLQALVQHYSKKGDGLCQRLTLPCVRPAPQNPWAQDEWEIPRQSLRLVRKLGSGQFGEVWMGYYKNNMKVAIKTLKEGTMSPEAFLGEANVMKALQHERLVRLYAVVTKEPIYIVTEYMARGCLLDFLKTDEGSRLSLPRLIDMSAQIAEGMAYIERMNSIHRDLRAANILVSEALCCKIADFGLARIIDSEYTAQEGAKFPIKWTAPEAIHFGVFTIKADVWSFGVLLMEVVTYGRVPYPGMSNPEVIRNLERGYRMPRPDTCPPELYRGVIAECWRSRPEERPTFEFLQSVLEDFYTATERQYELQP
measureName: IC50

>>> valuemeasured("COCCOc1ccc(-c2nn([C@@H]3CCN(C(=O)/C=C/CN(C)C)C3)c3ncnc(N)c23)cc1 [Example 2]")
"< 100 nM"
>>> valuemeasured("COc1cc(-c2nn([C@@H]3CCN(C(=O)/C=C/CN(C)C)C3)c3ncnc(N)c23)ccc1F [Example 8]")
"100 to 1000 nM"
>>> valuemeasured("COc1cccc(-c2nn([C@@H]3CCN(C(=O)/C=C/CN(C)C)C3)c3ncnc(N)c23)c1 [Example 6]")
"< 100 nM"
>>> valuemeasured("CN(C)C/C=C/C(=O)Nc1ccc(-n2nc(-c3ccc(Cl)cc3)c3c(N)ncnc32)cc1 [Example 17]")
"< 100 nM"

###

# IC50 measurements, system: Lyn (Homo sapiens)
measureName: IC50

>>> valuemeasured("CN(C(=O)/C=C/CN(C)C1CC1)c1cccc(-n2nc(-c3ccc(Cl)cc3)c3c(N)ncnc32)c1 [Example 25]")
"> 1000 nM"
>>> valuemeasured("Cc1ccc(-c2nn([C@@H]3CCN(C(=O)/C=C/CN(C)C4CCC4)C3)c3ncnc(N)c23)cc1 [Example 12]")
"> 1000 nM"
>>> valuemeasured("C=CC(=O)N(C)c1ccc(-n2nc(-c3ccc(C)c(OC)c3)c3c(N)ncnc32)cc1 [Example 18]")
"100 to 1000 nM"
>>> valuemeasured("CN(C)C/C=C/C(=O)N1CC[C@@H](n2nc(-c3ccc(Cl)cc3F)c3c(N)ncnc32)C1 [Example 7]")
"100 to 1000 nM"
>>> valuemeasured("COc1cc(-c2nn([C@@H]3CCN(C(=O)/C=C/CN(C)C)C3)c3ncnc(N)c23)ccc1F [Example 8]")
"> 1000 nM"
>>> valuemeasured("COc1cc(-c2nn(-c3ccc(NC(=O)/C=C/CN(C)C)cc3)c3ncnc(N)c23)ccc1C [Example 16]")
"< 100 nM"
>>> valuemeasured("C=CC(=O)Nc1ccc(-n2nc(-c3ccc(Cl)cc3)c3c(N)ncnc32)cc1 [Example 19]")
"< 100 nM"
>>> valuemeasured("CN(C)C/C=C/C(=O)Nc1ccc(-n2nc(-c3ccc(Cl)cc3)c3c(N)ncnc32)cc1 [Example 17]")
"< 100 nM"

###

Measured IC50 on Lyn (Homo sapiens, UniProt P07948) follows.
Sequence (P07948 whole entry): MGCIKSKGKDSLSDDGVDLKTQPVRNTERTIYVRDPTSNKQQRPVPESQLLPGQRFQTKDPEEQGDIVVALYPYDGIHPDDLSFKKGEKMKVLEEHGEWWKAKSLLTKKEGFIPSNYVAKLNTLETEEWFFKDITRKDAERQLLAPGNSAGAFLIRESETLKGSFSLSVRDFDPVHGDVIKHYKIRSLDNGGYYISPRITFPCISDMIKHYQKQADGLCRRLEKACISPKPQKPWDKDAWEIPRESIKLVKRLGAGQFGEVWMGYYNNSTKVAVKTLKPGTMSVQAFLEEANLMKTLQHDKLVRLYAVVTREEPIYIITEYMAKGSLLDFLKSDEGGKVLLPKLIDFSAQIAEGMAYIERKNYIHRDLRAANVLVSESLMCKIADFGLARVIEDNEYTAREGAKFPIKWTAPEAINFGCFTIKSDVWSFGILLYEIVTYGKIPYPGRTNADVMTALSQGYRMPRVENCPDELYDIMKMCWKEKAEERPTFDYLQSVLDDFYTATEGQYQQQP
measureName: IC50

>>> valuemeasured("COc1cccc(-c2nn([C@@H]3CCN(C(=O)/C=C/CN(C)C4CCC4)C3)c3ncnc(N)c23)c1 [Example 13]")
"> 1000 nM"
>>> valuemeasured("Cc1ccc(-c2nn([C@@H]3CCN(C(=O)/C=C/CN(C)C)C3)c3ncnc(N)c23)cc1 [Example 4]")
"100 to 1000 nM"
>>> valuemeasured("C=CC(=O)Nc1ccc(-n2nc(-c3ccc(Cl)c(Cl)c3)c3c(N)ncnc32)cc1 [Example 20]")
"100 to 1000 nM"
>>> valuemeasured("CN(C/C=C/C(=O)Nc1cccc(-n2nc(-c3ccc(Cl)cc3)c3c(N)ncnc32)c1)C1CC1 [Example 26]")
"100 to 1000 nM"

###

What follows is a record of IC50 for Lyn (Homo sapiens).
measureName: IC50

>>> valuemeasured("COc1cc(-c2nn([C@@H]3CCN(C(=O)/C=C/CN(C)C)C3)c3ncnc(N)c23)ccc1C [Example 9]")
"100 to 1000 nM"
>>> valuemeasured("COc1cccc(-c2nn([C@@H]3CCN(C(=O)/C=C/CN(C)C)C3)c3ncnc(N)c23)c1 [Example 6]")
"100 to 1000 nM"
>>> valuemeasured("COCCOc1ccc(-c2nn([C@@H]3CCN(C(=O)/C=C/CN(C)C)C3)c3ncnc(N)c23)cc1 [Example 2]")
"> 1000 nM"
>>> valuemeasured("CN(C)C/C=C/C(=O)N(C)c1cccc(-n2nc(-c3ccc(Cl)cc3)c3c(N)ncnc32)c1 [Example 21]")
"> 1000 nM"
>>> valuemeasured("CN(C)C/C=C/C(=O)N(C)c1ccc(-n2nc(-c3ccc(Cl)cc3)c3c(N)ncnc32)cc1 [Example 14]")
"100 to 1000 nM"
